- PROTOCOL_SUMMARY: chemical genetic growth profiling, strain panel (AID 1159580);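 note: tested at 20 µM; growth read once vehicle control cultures reached saturation at 30 °C; 1 = growth at the plate median or of vehicle wells; lower values mean less growth of the strain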
- APPLIED_CONDITIONS: S. cerevisiae deletion strains, growth OD, locus YLR342W, strain FKS1 (second series), active compounds read low
Among all 5,500 compounds or so, about 2,000 (36%) were called active. Another 18% or so got no clear call; they are omitted. The list shows a part of the results.
ENDPOINT_LABEL: normalized growth
Format: numeric value only, no unit, no commentary.

Consider the worked cases shown below.
[[record]]
compound = "COc1c2c(cc3occ(-c4ccc5c(c4)OCO5)c(=O)c13)OC(C)(C)C=C2"
obs_value = 0.963

[[record]]
compound = "C[C@]12CCC3C(CC[C@H]4C[C@@H](O)CC[C@]34C)C1CCC2=O (stereo not given in full)"
obs_value = 0.733

[[record]]
compound = "CC(=O)OC1CCC2C3CCc4cc(O)ccc4C3CCC12C (stereo not given)"
obs_value = 0.891


Item C[C@]12CCC3c4ccc(O)cc4CCC3C1CC[C@@H]2OC(=O)CCC1CCCC1 (stereo not given in full) has what recorded normalized growth?
1

# repeat for CC(C)=CCc1c(O)cc2occ(-c3ccc4c(c3)OCO4)c(=O)c2c1O
0.996

Input COc1ccc2c(=O)c(-c3cc4c(cc3OC)OCO4)coc2c1
0.997

Also CC1=C2CCC3C(CC[C@]4(C)C(=O)CCC34)[C@@]2(C)CCC1=O (stereo not given in full) ?
0.811

Queued: CCCCC(=O)O[C@H]1CCC2C3CCc4cc(O)ccc4C3CC[C@@]21C (stereo not given in full)
0.98

Request: CC(=O)Oc1ccc2c(c1)CCC1C2CC[C@@]2(C)C1CC[C@@H]2OC(C)=O (stereo not given in full)
1.03

Would you kindly repeat that for COc1cc2c(cc1-c1coc3c4c(c(OC)cc3c1=O)OC(C)(C)C=C4)OCO2 ?
0.936

###

- PROTOCOL_SUMMARY: chemical genetic growth profiling, strain panel (AID 1159580)
- APPLIED_CONDITIONS: S. cerevisiae deletion strains, growth OD, locus YPL106C, strain sse1, active compounds read low
Out of some 5,500 compounds screened, about 2,000 (36%) were called active. Not shown: some 18% with an inconclusive outcome. The list shows a part of the results.
Items are presented alongside their recorded normalized growth.
# print the numeric value only

[[record]]
compound = "COc1c(O)cc(O)cc1O"
endpoint_label = "normalized growth"
obs_value = 0.986

[[record]]
compound = "CCCCC(=O)O[C@H]1CCC2C3CCc4cc(O)ccc4C3CC[C@@]21C (stereo partly specified)"
endpoint_label = "normalized growth"
obs_value = 1

[[record]]
compound = "CCOc1ccc(Cc2nccc3cc(OCC)c(OCC)cc23)cc1OCC"
endpoint_label = "normalized growth"
obs_value = 0.999

[[record]]
compound = "COc1ccc2c(c1)[nH]c1c(C)nccc12"
endpoint_label = "normalized growth"
obs_value = 0.972

[[record]]
compound = "CN1Cc2c(N)cccc2C(c2ccccc2)C1 (stereo unspecified)"
endpoint_label = "normalized growth"
obs_value = 0.969


// moving on: another record for normalized growth
Name the recorded normalized growth for CC(=O)Oc1ccc2c(c1)CCC1C2CC[C@@]2(C)C1CC[C@@H]2OC(C)=O (stereo partly specified) .
1.03

###

- PROTOCOL_SUMMARY: chemical genetic growth profiling, strain panel (AID 1159580)
- APPLIED_CONDITIONS: S. cerevisiae deletion strains, growth OD, locus YLR258W, strain gsy2, active compounds read low
In all, about 5,500 compounds went through this assay and about 2,000 (36%) were called active. Roughly 18% stayed inconclusive and do not appear here. This is one part of the list.
ENDPOINT_LABEL: normalized growth

Check out these entries, answers already filled in.
[[record]]
molecule = "Cc1cccc(N(C)C(=S)Oc2ccc3ccccc3c2)c1"
endpoint_label = "normalized growth"
obs_value = "0.974 (inactive)"

[[record]]
molecule = "c1coc(CNc2ncnc3nc[nH]c23)c1"
endpoint_label = "normalized growth"
obs_value = "0.996 (inactive)"


Would you mind telling me what normalized growth value was observed for C=C1CC2C(CCC3(C)C(=O)CCC23)C2(C)C=CC(=O)C=C12 (stereo not drawn) ?
0.945 (inactive)

Next molecule: CC(C)=CCOc1cc2oc(=O)ccc2cc1O
0.951 (inactive)

Similarly, COc1cc(O)c(C)c(O)c1 ?
1.02 (inactive)

Another: CNC(=O)CSP(=S)(OC)OC
1.03 (inactive)

Now this one: COc1cc2ccc(=O)oc2c(OC)c1OC
0.992 (inactive)

Now the same for Cc1c(N(C)CS(=O)(=O)O)c(=O)n(-c2ccccc2)n1C
1.01 (inactive)

Then C[C@H]1C(=O)O[C@@H]2CCN3CC=C(COC(=O)[C@](C)(O)[C@]1(C)O)[C@H]23 ?
0.992 (inactive)

Here is the next molecule: CC(C)CCCC(C)[C@H]1CCC2C3CC[C@H]4CC(=O)CC[C@]4(C)C3CC[C@@]21C (stereo partly drawn)
1.01 (inactive)

###

Overview of recorded normalized growth for various molecules
- PROTOCOL_SUMMARY: chemical genetic growth profiling, strain panel (AID 1159580);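 note: tested at 20 µM; growth read once vehicle control cultures reached saturation at 30 °C; 1 = growth at the plate median or of vehicle wells; lower values mean less growth of the strain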
- APPLIED_CONDITIONS: S. cerevisiae deletion strains, growth OD, locus YPL078C, strain atp4, active compounds read low
Among all 5,500 compounds or so, about 2,000 (36%) were called active. Roughly 18% stayed inconclusive and do not appear here. The list shows a part of the results.
Please reply with the value in numeric form only.

Requested field: normalized growth. Item: COc1cc(OC)c2c(=O)c(-c3ccc4c(c3)OCO4)coc2c1
0.983

Now the molecule CCCc1nc(C(C)(C)O)c(C(=O)OCc2oc(=O)oc2C)n1Cc1ccc(-c2ccccc2-c2nn[nH]n2)cc1
0.961

###

- PROTOCOL_SUMMARY: chemical genetic growth profiling, strain panel (AID 1159580);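 note: tested at 20 µM; growth read once vehicle control cultures reached saturation at 30 °C; 1 = growth at the plate median or of vehicle wells; lower values mean less growth of the strain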
- APPLIED_CONDITIONS: S. cerevisiae deletion strains, growth OD, locus YKL203C, strain TOR2
In all, about 5,500 compounds went through this assay and about 2,000 (36%) were called active. Inconclusive results (about 18%) are left out. No stated cut-off is given here; in the data, active means normalized growth mostly below about 0.91 (no sharp cut-off); inconclusive means no clear call, values can overlap the other calls; inactive means mostly above about 0.92. The list shows a part of the results.
Give one outcome, nothing more. List: label 1 (active), label 0 (inactive)

Answered examples (3):
[[record]]
molecule = "Fc1ccc(Nc2nc(-c3ccc(F)c(F)c3)cs2)c(F)c1"
assigned_category = "label 1"

[[record]]
molecule = "CC(/C=C/c1ccccc1)=N/OC(=O)c1ccccc1Cl"
assigned_category = "label 0"

[[record]]
molecule = "CSC(SC)=C(C#N)C(=O)c1ccccc1Cl"
assigned_category = "label 1"


In this assay, the call recorded for Cc1ccc(C(=O)Nc2ccc3ccccc3n2)cc1 was what?
label 0

Would you mind doing CCCCCc1ccc(-c2nc(SCC(C)=O)n[nH]2)cc1 as well?
label 0

Record: N#Cc1c(N)sc2c1CCc1ccccc1-2
label 1

Here is the next molecule: N#C/C(=C\c1ccc(C(F)(F)F)cc1)c1ccc(O)cc1
label 1

Item: Cc1c(NCN2C(=O)CCC2=O)cc2c(c1[N+](=O)[O-])C(C)(C)CC2(C)C
label 0

Entry COc1cccc(C(=O)C(C#N)=C(SC)SC)c1 please
label 1

Would you mind doing FC(F)(F)c1ccc(C2Sc3ccccc3N=C3c4ccccc4CC32)cc1 (stereo not given) as well?
label 0

###

- PROTOCOL_SUMMARY: chemical genetic growth profiling, strain panel (AID 1159580);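 note: tested at 20 µM; growth read once vehicle control cultures reached saturation at 30 °C; 1 = growth at the plate median or of vehicle wells; lower values mean less growth of the strain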
- APPLIED_CONDITIONS: S. cerevisiae deletion strains, growth OD, locus YMR001C, strain CDC5, active compounds read low
The whole screen tested about 5,500 compounds, of which about 2,000 (36%) were called active. Another 18% or so got no clear call; they are omitted. This is one part of the list.
ENDPOINT_LABEL: normalized growth
The response must contain the number and no unit.

// solved cases for normalized growth follow
[[record]]
compound = "O=C1CSC(=Nc2cc(Cl)cc(Cl)c2)N1Cc1cccnc1"
obs_value = 0.996

[[record]]
compound = "CSc1sc(-c2ccn[nH]2)c(-c2ccccc2)c1C#N"
obs_value = 0.993

[[record]]
compound = "O=C(N/N=C\\c1cc(Cl)cc(Cl)c1O)c1ccccc1Oc1ccccc1"
obs_value = 0.961


May I ask what normalized growth has been recorded for CN(C)c1nc(=S)ss1 ?
0.87

Okay, and CC(Oc1ccc(Cl)cc1Cl)C(=O)NNC(=S)Nc1ccccc1 (configuration not stated) ?
0.981

Okay, and CCOC(=O)C(NC(C)=O)(Nc1ccc(F)c(Cl)c1)C(F)(F)F (configuration not stated) ?
0.984

Moving on to CCOC(=O)C(O)(c1ccc(NC(=O)Nc2ccc(Cl)cc2)cc1)C(F)(F)F (configuration not stated)
0.983

Next up: Cc1c(Cl)cccc1N=C1SCC(=O)N1Cc1ccco1
0.973

Can you handle COc1ccc(/C(C#N)=C2C=C/C(=N/O)C(Cl)=C\2)cc1 next?
0.959

What would you report for N#C/C(=C\C=C\c1ccccc1)c1nc2ccccc2[nH]1 ?
0.956

Then this compound: Nc1ccc(N2CCN(c3ccc(C(F)(F)F)cn3)CC2)nc1
0.977

// repeat for O=C(c1ccc(Cl)cc1)N1CCN(c2ccc(C(F)(F)F)cn2)CC1 and report
0.977
